molecular target: β-Glc; test: Kinetic experiments (Lineweaver–Burk, Ki); type: biochemical, almonds; details: kinetic assays, p-NPG substrate
result type: pKi
Conceptually, pKi converts a concentration in mol/L into minus its log10.

Input O=S(=O)(NCCc1c[nH]cn1)c1ccc(F)cc1 . Output pKi: 5.09
